- Test system: PC-3
- Experiment: NCI tumour cell line growth inhibition, 48 h
The source made the active and inactive calls. Cut-off read from the data, not from the text of the source: active = GI50 up to about 1.1 µM and inactive = higher.
Select the matching outcome among active, inactive

Compound	Label Value
COC1CC(NC(=O)C(F)(F)F)C(OC(C)=O)C(C)O1 (stereo not given)	inactive

Query compound follows.
Q: Recorded call for COc1ccc(C(OCC2OC3(COC(c4ccccc4)(c4ccc(OC)cc4)c4ccc(OC)cc4)C(Oc4nc(=O)ccn43)C2O)(c2ccccc2)c2ccc(OC)cc2)cc1 (stereo not given) ?
Ans: inactive

---

- Test system: MOLT-4
- Experiment: NCI tumour cell line growth inhibition, 48 h
Activity calls are given as the source filed them. Rule as the data show it: active = GI50 up to about 1.1 µM and inactive = higher.
Endpoint Label: GI50

Consider the following illustrative entries.
> print(dat)
                                   compound  target.under.test  endpoint.label      recorded.result
1  CC(CC(C)[C@H]1CCC2[C@H]3C(CC(=O)[C@@]21C)[C@@]1(C)CCC(O)C[C@H]1C[C@@H]3O)C(=O)O (some centres undefined)             MOLT-4            GI50   46.2 µM (inactive)
2       CN(/N=C/c1ccc(C(=O)O)cc1)C1=NCCCCN1             MOLT-4            GI50  > 100 µM (inactive)
3  COC(=O)c1cc(C)ccc1C1CN=NC12Cc1c(C)cc(C)cc1C2=O (centres undefined)             MOLT-4            GI50   15.7 µM (inactive)
4  C=C1C(=O)C23C(O)CC4C(C)(C)CCC(O)C4(C)C2CC(OC(C)=O)C1[C@H]3O (some centres undefined)             MOLT-4            GI50   1.28 µM (inactive)
5  COC(=O)C1=C(C(=O)OC)N(C(C)C)[C@H]2C(C(=O)OC)=C(C(=O)OC)N(C(C)C)[C@@H]12             MOLT-4            GI50     71 µM (inactive)
6  C=C(C)C1CC=C(C)C(O)([C@@]2(O)C[C@H](C(=C)C)CC=C2C)C1 (some centres undefined)             MOLT-4            GI50   17.8 µM (inactive)
7  Cc1cn(C2CC(n3cc(Cn4cc(F)c(=O)[nH]c4=O)nn3)C(CO)O2)c(=O)[nH]c1=O (centres undefined)             MOLT-4            GI50  > 100 µM (inactive)
8  O=C(/C=C1\Nc2ccccc2N\C1=C\C(=O)c1ccc(Cl)cc1)c1ccccc1             MOLT-4            GI50   7.87 µM (inactive)

Consider the additional compound presented here.
Q: Give its GI50 value. Item: CSCCC(C(=O)O)N(CC1(O)OCC(O)C(O)C1O)N=O (centres undefined)
Ans: > 100 µM (inactive)
